Listing: IC50 at 5 days of selected compounds
# protocol summary: MTT cytotoxicity assay, HepG2
# Assay type: cell-based, Human
# setup conditions: human, HepG2 cells; MTT, 5 days; read-out: Cell Toxicity IC50 ± SE HepG2
Just the number in µM, nothing appended.

Previously resolved entries follow.
>>> print(df.to_string())
                                   compound         measure  value_units  recorded_number
0  COc1ccc2nc(C)cc(N/N=C/c3ccc(O)cc3)c2c1 [Compound 8]  IC50 at 5 days           µM             1.97
1  COc1ccc2nc(C)cc(N/N=C/c3cc(O)cc(O)c3)c2c1 [Compound 11]  IC50 at 5 days           µM             11.1

What value of IC50 at 5 days has been recorded for this entry: COc1ccc2nc(-c3ccccc3)cc(N/N=C/c3cccc(OC)c3O)c2c1 [Compound 12] 1.8

For the compound shown here, COc1ccc2nc(C)cc(N/N=C/c3cccc(OC)c3O)c2c1 [Compound 5] , give the reported IC50 at 5 days. 6.73

* * *

# Tested on: MDBK cells
# protocol summary: MTT cytotoxicity assay, MDBK
# Assay type: cell-based, bovine
# setup conditions: MDBK IC50 (5 days) / K1 72 h IC50; IC50 = 25 μM assumed for compounds 5 and 13
measure: Selectivity Indices (MDBK)
Please reply with the number alone, leaving off any unit.

If you can, please state the reported Selectivity Indices (MDBK) value of COc1ccc2nc(C)cc(N/N=C/c3cccnc3)c2c1 . 42

* * *

# System: MDBK cells
# protocol summary: MTT cytotoxicity assay, MDBK
# Format: cell-based, bovine
# setup conditions: MDBK IC50 (5 days) / K1 72 h IC50; IC50 = 25 μM assumed for compounds 5 and 13
measure: Selectivity Indices (MDBK)
Write no unit; give the number alone.

Below: 2 compounds and their reported Selectivity Indices (MDBK).
>>> print(df.to_string())
                                   compound                     measure  recorded_number
0  COc1ccc2nc(C)cc(N/N=C/c3ccc(F)cc3)c2c1 [Compound 1]  Selectivity Indices (MDBK)              147
1  COc1ccc2nc(C)cc(NN=Cc3ccccc3)c2c1 [Compound 2]  Selectivity Indices (MDBK)              101

Data request, read-out Selectivity Indices (MDBK), for COc1ccc2nc(-c3ccccc3)cc(N/N=C/c3cccc(OC)c3O)c2c1 [Compound 12] 50
